Test system: Ctenocephalides felis
Details: 8 h; data from laboratory 1
Everything with C. felis Mortality (%) 8 h lower than 7% is false (0); everything else, including exactly 7%, is true (1).

entry_smiles=C/C(=N\NC(=O)Nc1ccc(OC(F)(F)F)cc1)c1cc(Cl)ccc1NS(=O)(=O)C(F)(F)F qualitative_label="false (0)"
entry_smiles=CCC(=NNC(=O)c1ccc(Cl)cc1Cl)c1cc(Cl)ccc1NS(=O)(=O)C(F)(F)F qualitative_label="true (1)"
entry_smiles=CCCN(N=C(C)c1cc(Cl)ccc1NS(=O)(=O)C(F)(F)F)c1cccc(Cl)c1 qualitative_label="false (0)"
entry_smiles=CC(=Nn1cnc2ccccc21)c1cc(Cl)ccc1NS(=O)(=O)C(F)(F)F qualitative_label="false (0)"
entry_smiles=C/C(=N\NC(=O)Nc1ccc(C(F)(F)F)cc1)c1cc(Cl)ccc1NS(=O)(=O)C(F)(F)F qualitative_label="true (1)"
